Target: UniProt:P48426
Sequence (P48426 1-406): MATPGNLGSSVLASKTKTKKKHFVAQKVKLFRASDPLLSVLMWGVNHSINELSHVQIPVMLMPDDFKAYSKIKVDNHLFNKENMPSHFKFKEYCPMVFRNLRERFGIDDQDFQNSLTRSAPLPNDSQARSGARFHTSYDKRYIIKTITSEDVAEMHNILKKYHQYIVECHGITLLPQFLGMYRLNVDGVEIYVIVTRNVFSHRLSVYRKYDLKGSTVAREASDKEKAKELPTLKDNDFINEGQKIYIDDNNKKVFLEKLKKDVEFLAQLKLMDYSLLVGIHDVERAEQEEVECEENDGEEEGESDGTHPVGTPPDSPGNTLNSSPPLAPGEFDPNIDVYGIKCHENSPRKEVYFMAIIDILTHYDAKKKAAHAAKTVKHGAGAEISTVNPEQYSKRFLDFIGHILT
Assay: ADP-glo kinase assay PIP4K 2A (Table 3)
Type: biochemical
Set-up: made in house; host or cells: E. coli
Conditions: compounds listed under IC50 bins
Recorded metric: IC50

| Compound | Recorded metric | Observed |
| --- | --- | --- |
| CN(C)C(=O)c1ccc(-c2ccc(Nc3cncc(NC(=O)c4cccc5[nH]cnc45)c3)nc2)cc1 | IC50 | 0.01 to 0.1 µM |
| CN(C)C(=O)c1cccc2ncc(Nc3ccc(-c4ccc(N5CCCC5=O)cc4)cn3)cc12 | IC50 | 0.1 to 1 µM |
| CN(C)C(=O)c1ccc(-c2ccc(Nc3cncc(NS(C)(=O)=O)c3)nc2)cc1 | IC50 | 0.01 to 0.1 µM |
| CN(C)C(=O)c1ccc(-c2ccc(Nc3cncc(NC(=O)c4ccc5ncoc5c4)c3)nc2)cc1 | IC50 | 0.01 to 0.1 µM |
| CS(=O)(=O)N1CCOc2ncc(Nc3ccc(-c4ccc(N5CCCC5=O)cc4)cn3)cc21 | IC50 | 0.01 to 0.1 µM |
| CN(C)C/C=C/C(=O)NCC(=O)Nc1cccc(CCC(=O)Nc2cncc(Nc3ccc(-c4ccc(C(=O)N(C)C)cc4)cn3)c2)c1 | IC50 | 0.1 to 1 µM |
| O=C(Nc1cncc(Nc2ccc(-c3ccc(N4CCCC4=O)cc3)cn2)c1)N1CCNC(C2CC2)C1 (stereo not drawn) | IC50 | 0.1 to 1 µM |
| COC(=O)N1CCOc2ncc(Nc3ccc(-c4ccc(N5CCCC5=O)cc4)cn3)cc21 | IC50 | 0.001 to 0.01 µM |
| O=C1CCCN1c1ccc(-c2ccc(Nc3cnc4c(c3)N3C(=O)C(O)C[C@H]3CO4)nc2)cc1F (stereo partly drawn) | IC50 | 0.01 to 0.1 µM |
| CN(C)C(=O)c1ccc(-c2ccc(Nc3cnc4c(c3)N(C(=O)c3ccccn3)CCO4)nc2)cc1 | IC50 | 0.01 to 0.1 µM |
| Cc1cc(Nc2cnc3c(c2)N2C(=O)C4(CC4)C[C@H]2CO3)ncc1-c1ccc(N2CCCC2=O)cc1 | IC50 | 0.001 to 0.01 µM |
| O=C1CCCN1c1ccc(-c2ccc(Nc3cnc4c(c3)N3C(=O)C(O)C[C@H]3CO4)nc2)cc1 (stereo partly drawn) | IC50 | 0.01 to 0.1 µM |
| CN(C)C(=O)c1ccc(-c2ccc(Nc3cncc(NC(=O)CC#N)c3)nc2)cc1 | IC50 | 0.1 to 1 µM |
| COc1ccc(C(=O)Nc2cncc(Nc3ccc(-c4ccc(C(=O)N(C)C)cc4)cn3)c2)cc1 | IC50 | 0.01 to 0.1 µM |
| CN(C)C(=O)c1ccc(-c2ccc(Nc3cnc4c(c3)N3C(=O)CC[C@H]3CO4)nc2)cc1 | IC50 | 0.001 to 0.01 µM |
| CN(C)C(=O)c1ccc(-c2ccc(Nc3cncc(N4CCN(Cc5ccc(NC(=O)CN)cc5)C4=O)c3)nc2)cc1 | IC50 | > 1 µM |
| Cc1cc(N2CCCC2=O)ccc1-c1cnc(Nc2cnc3c(c2)N2C(=O)CC[C@H]2CO3)nc1 | IC50 | 0.001 to 0.01 µM |
| COc1cccc(C(=O)Nc2cncc(Nc3ccc(-c4ccc(C(=O)N(C)C)cc4)cn3)c2)c1 | IC50 | 0.01 to 0.1 µM |
| CN(C)C(=O)c1ccc(-c2ccc(Nc3ccc(N4CCOCC4)nc3)nc2)cc1 | IC50 | > 1 µM |
| O=C1CCCN1c1ccc(-c2ccc(Nc3cnc4c(c3)N3C(=O)OC[C@H]3CO4)nc2)cc1 | IC50 | 0.001 to 0.01 µM |
| Cc1cc(-c2ccc(N3CCCC3=O)cc2)cnc1Nc1cnc2c(c1)N1C(=O)CC[C@H]1CO2 | IC50 | > 1 µM |
| O=C([C@H]1CCOC1)N1CCN(c2cncc(Nc3ccc(-c4ccc(N5CCCC5=O)cc4)cn3)c2)CC1 | IC50 | 0.1 to 1 µM |
| O=C1CCCN1c1ccc(-c2ccc(Nc3cnc4c(c3)N(S(=O)(=O)C3CC3)CCO4)nc2)cc1 | IC50 | 0.01 to 0.1 µM |
| CC(C)(O)C(=O)N1CCOc2ncc(Nc3ccc(-c4ccc(N5CCCC5=O)cc4)cn3)cc21 | IC50 | 0.001 to 0.01 µM |
| CN(C)C(=O)c1ccc(-c2ccc(Nc3cncc(NC(=O)c4ccc(F)cc4)c3)nc2)cc1 | IC50 | 0.01 to 0.1 µM |
| Cc1nc(Nc2cnc3c(c2)N2C(=O)CC[C@H]2CO3)ncc1-c1ccc(N2CCCC2=O)cc1 | IC50 | 0.01 to 0.1 µM |
| Nc1nc(Nc2cnc3c(c2)N2C(=O)C4(CC4)C[C@H]2CO3)ncc1-c1ccc(N2CCCC2=O)cc1 | IC50 | 0.001 to 0.01 µM |
| O=C1CCCN1c1ccc(-c2ccc(Nc3cnc4c(c3)N3C(=O)CC[C@@H]3CO4)nc2)cc1 | IC50 | 0.01 to 0.1 µM |
| COc1ncc(Nc2ccc(-c3ccc(N4CCCC4=O)cc3)cn2)cc1NS(C)(=O)=O | IC50 | 0.1 to 1 µM |
| CN(C)C(=O)c1ccc(-c2ccc(Nc3cncc(NC(=O)CCc4ccc(N)cc4)c3)nc2)cc1 | IC50 | 0.01 to 0.1 µM |

---

The compounds listed here are annotated with their pIC50.
Target: PIP4K2B (Homo sapiens)
Sequence (P78356 whole entry, species assumed): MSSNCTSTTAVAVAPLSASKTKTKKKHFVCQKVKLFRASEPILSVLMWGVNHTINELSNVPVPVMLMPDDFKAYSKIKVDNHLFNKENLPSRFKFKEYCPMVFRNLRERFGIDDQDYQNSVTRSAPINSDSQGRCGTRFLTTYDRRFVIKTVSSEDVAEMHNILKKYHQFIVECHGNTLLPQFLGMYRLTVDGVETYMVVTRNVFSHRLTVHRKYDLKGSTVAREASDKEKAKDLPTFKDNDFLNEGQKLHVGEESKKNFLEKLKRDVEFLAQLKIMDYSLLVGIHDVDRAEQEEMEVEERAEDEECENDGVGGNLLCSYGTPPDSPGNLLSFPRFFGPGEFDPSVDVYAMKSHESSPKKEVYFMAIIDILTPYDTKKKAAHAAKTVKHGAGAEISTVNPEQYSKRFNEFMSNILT
pIC50: −log10 of the molar value.
Recorded metric: pIC50

| Smiles input | Observed |
| --- | --- |
| Cc1cc(N2CCCC2=O)ccc1-c1cnc(Nc2cnc3c(c2)N2C(=O)CC[C@H]2CO3)nc1 | 8.00 to 9.00 |
| CN(C)C(=O)c1ccc(-c2ccc(Nc3cncc(NC(=O)CCc4cccc(NC(=O)C5CCNCC5)c4)c3)nc2)cc1 | 7.00 to 8.00 |
| C[C@@]1(O)C[C@H]2COc3ncc(Nc4ccc(-c5ccc(N6CCCC6=O)c(F)c5)cn4)cc3N2C1=O | 7.00 to 8.00 |
| CN(C)C(=O)c1ccc(-c2ccc(Nc3cncc(NC(=O)CC#N)c3)nc2)cc1 | 7.00 to 8.00 |
| COc1ncc(Nc2ccc(-c3ccc(N4CCCC4=O)cc3)cn2)cc1N(C)C(C)=O | < 6.00 |
| CC1(C)C[C@H]2COc3ncc(Nc4ccc(-c5ccc(N6CCCC6=O)cc5)cn4)cc3N2C1=O | 7.00 to 8.00 |
| CN(C)C(=O)c1ccc(-c2ccc(Nc3cncc(NC(=O)c4ccc(N)cc4)c3)nc2)cc1 | 7.00 to 8.00 |

---

Overview of recorded pIC50 for various molecules
Biological target: UniProtKB P48426
Test: Kinase Assay PIP4K2 A (Table 2)
Format: biochemical
Design: 4 nM PIP4K2A (full length protein, SignalChem); purchased SignalChem
Settings: compounds listed under IC50 bins
pIC50: −log10 of the molar value.

| Molecule | pIC50 |
| --- | --- |
| CN(C)C(=O)C#Cc1ccc(Nc2cccnc2)nc1 [Example 4] | < 6.00 |
| CN(C)C(=O)c1ccc(-c2ccc(Nc3cncc(NC(=O)c4ccc5c(c4)COB5O)c3)nc2)cc1 [Example 132] | 8.00 to 9.00 |
| CCN(C)C(=O)c1ccc(-c2ccc(Nc3cccnc3)nc2)cc1 [Example 68] | 6.00 to 7.00 |
| CN(C)C(=O)c1ccc(-c2ccc(Nc3cnc4c(c3)OCO4)nc2)cc1 [Example 62] | 6.00 to 7.00 |
| Cc1cc(-c2ccc(Nc3cccnc3)nc2)ccc1C(=O)N(C)C [Example 10] | < 6.00 |
| CN(C)C(=O)c1ccc(-c2ccc(Nc3cncc(N4CCN(Cc5cccnc5)C4=O)c3)nc2)cc1 [Example 76] | 8.00 to 9.00 |
| CC(C)c1cc(Nc2cnc3c(c2)N2C(=O)CC[C@H]2CO3)ncc1-c1ccc(N2CCCC2=O)cc1 [Example 177] | ≥ 9.00 |
| O=C(Nc1cncc(Nc2ccc(-c3ccc(N4CCCC4=O)cc3)cn2)c1)c1ccc(=O)[nH]c1 [Example 240] | 7.00 to 8.00 |

The measurements presented in this section are drawn from patent US11667651B2.
